Consider the following molecules; for each one, report its area over the GR curve.
Tested on: HCC202
Assay: area over the GR curve, 72 h; higher = more effect;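 also: Dye Drop or Deep Dye Drop imaging of viable cells in 384-well plates (Hoechst nuclei, LIVE/DEAD dye), nine half-log doses, GR normalized to DMSO controls and time-zero plates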
Answers are plain numbers, in GR.

Cc1nc(-c2cn3c(n2)-c2ccc(-c4cnn(C(C)(C)C(N)=O)c4)cc2OCC3)n(C(C)C)n1 [Taselisib/GDC0032] (max 10 µM)
0.791
CC(C)Nc1cc(-c2c[nH]c(C(=O)N[C@H](CO)c3cccc(Cl)c3)c2)c(Cl)cn1 [BVD523] (max 10 µM)
0.174

Need area over the GR curve for each of these molecules.
1. CC(=O)O[C@H]1C(=O)[C@@]2(C)[C@H]([C@H](OC(=O)c3ccccc3)[C@]3(O)C[C@H](OC(=O)[C@H](O)[C@@H](NC(=O)c4ccccc4)c4ccccc4)C(C)=C1C3(C)C)[C@]1(OC(C)=O)CO[C@@H]1C[C@@H]2O [Paclitaxel] (max 1 µM)
2. O=C(CCCCCCC(=O)Nc1ccccc1)NO [Vorinostat] (max 10 µM)
3. O=C(c1cc(Cc2n[nH]c(=O)c3ccccc23)ccc1F)N1CCN(C(=O)C2CC2)CC1 [Olaparib/AZD2281] (max 10 µM)
4. CC[C@@H]1C(=O)N(C)c2cnc(Nc3ccc(C(=O)N[C@H]4CC[C@H](N5CCN(CC6CC6)CC5)CC4)cc3OC)nc2N1C(C)C [Volasertib/BI6727] (max 1 µM)

Reply |
[0.552, 0.202, 0.127, 0.38]

Answer for every listed entry: what is its area over the GR curve? The entries follow.
1. CO[C@@H](C)Cn1c(=O)n(C)c2cnc3ccc(-c4cncc(C(C)(C)O)c4)cc3c21 (max 10 µM)
2. CC(=O)c1c(C)c2cnc(Nc3ccc(N4CCN(CCOCCOCCOCCNC(=O)COc5cccc6c5C(=O)N(C5CCC(=O)NC5=O)C6=O)CC4)cn3)nc2n(C2CCCC2)c1=O (centres undefined) [BSJ-03-123] (max 10 µM)
3. CC(C)NC[C@@H](C(=O)N1CCN(c2ncnc3c2[C@H](C)C[C@H]3O)CC1)c1ccc(Cl)cc1 [Ipatasertib/GDC0068] (max 10 µM)
4. O=C1NC(=O)[C@@H](c2cn3c4c(cccc24)CCC3)[C@@H]1c1c[nH]c2ccccc12 [Tivantinib/ARQ197] (max 10 µM)

Reply |
0.726
0.221
0.169
0.277

Working through the 4 molecules below one at a time, give area over the GR curve for each.
1. CS(=O)(=O)N1CCN(Cc2cc3nc(-c4cccc5[nH]ncc45)nc(N4CCOCC4)c3s2)CC1 [Pictilisib/GDC0941] (max 10 µM)
2. CC1(N)CCN(c2cnc(-c3cccc(Cl)c3Cl)c(N)n2)CC1 [SHP099] (max 10 µM)
3. CCC(=O)Nc1ccc(C(=O)Nc2ccc(Nc3ncc4c(n3)N(C)c3ccc(C)cc3C(=O)N4C)cc2)cc1
4. CN(C)C/C=C/C(=O)Nc1ccc(C(=O)Nc2cccc(Nc3ncc(Cl)c(-c4c[nH]c5ccccc45)n3)c2)cc1 [THZ1] (max 1 µM)

Reply |
1. 0.431
2. 0.051
3. 0.602
4. 0.42

Hello, the source for this data is the supplement of paper PMC9663587, in case you need it.
